meta.source: FireProtDB (doi:10.1021/bi00444a012)

Exercise: state measured change of melting temperature, mutant - wild type (higher = more stable) for each of the variants provided.
B1: Subtilisin BPN', P00782 (parent)
chain: MRGKKVWISLLFALALIFTMAFGSTSSAQAAGKSNGEKKYIVGFKQTMSTMSAAKKKDVISEKGGKVQKQFKYVDAASATLNEKAVKELKKDPSVAYVEEDHVAHAYAQSVPYGVSQIKAPALHSQGYTGSNVKVAVIDSGIDSSHPDLKVAGGASMVPSETNPFQDNNSHGTHVAGTVAALNNSIGVLGVAPSASLYAVKVLGADGSGQYSWIINGIEWAIANNMDVINMSLGGPSGSAALKAAVDKAVASGVVVVAAAGNEGTSGSSSTVGYPGKYPSVIAVGAVDSSNQRASFSSVGPELDVMAPGVSIQSTLPGNKYGAYNGTSMASPHVAGAAALILSKHPNWTNTQVRSSLENTTTKLGDSFYYGKGLINVQAAAQ

Variants of: B1
Details: Bacillus amyloliquefaciens; pH 8; Thermal; DSC; Tris-HCl 5.0 mM; KCl 50 mM; reversible: yes; structure 1SUP; whole UniProt chain shown
Provide only the numeric value, understood in °C.

Q: Fill in reported change of melting temperature, mutant - wild type (higher = more stable) for this entry: M157F
A: 1.8

Q: Give change of melting temperature, mutant - wild type (higher = more stable) for G276A
A: 1.1

Q: Provide only the value of recorded change of melting temperature, mutant - wild type (higher = more stable) for Q313C
A: 4.7

Q: Answer with the recorded change of melting temperature, mutant - wild type (higher = more stable) for the variant listed here: N183D
A: 1.7

Q: Assign change of melting temperature, mutant - wild type (higher = more stable) to the following record: N325S
A: 4
